System: RSL3
Experiment: IC50 (RSL3), Table 1
Assay type: cell-based
Catalogue of molecules with associated IC50

{"columns": ["molecule", "IC50"],
 "data": [
  ["CCC/C=C/c1nc(NC2CCOC2)c2c(n1)OCC(=O)N2 (stereo not drawn) [Compound B-603]", "> 3000 nM"],
  ["c1ncc(-c2ncc(NC3COC3)c(NC3CCCC3)n2)cn1 [Compound F-82]", "> 625 nM"],
  ["CCCCC(=O)c1cc(F)c2c(c1)CCCN2 [Compound B-132]", "> 3000 nM"],
  ["CC1=Nc2cc(C#N)ccc2NC1(C)C [Compound Q-912]", "> 3000 nM"],
  ["CCCCC(=O)c1cc2c3c(c1)nc(C(F)(F)F)n3CCC2 [Compound B-099]", "> 3000 nM"],
  ["CCCCCc1nc(NC2CCCC2)c2c(n1)S(=O)(=O)CCN2 [Compound B-602]", "≥ 3000 nM"],
  ["CCCCC(=O)c1cc2c(c(N(S(=O)(=O)CC(C)C)S(=O)(=O)CC(C)C)c1)NCCC2 [Compound B-248]", "> 3000 nM"],
  ["CCCCC(=O)c1cc2c(c(NC3CCCC3)c1)OCCC2 [Compound B-035]", "> 3000 nM"],
  ["CCCCC(=O)c1cc2c(c(-n3ccnc3)c1)NCCC2 [Compound B-006]", "> 3000 nM"]
]}
